Molecular target: UniProt O75762
Sequence (O75762 whole entry): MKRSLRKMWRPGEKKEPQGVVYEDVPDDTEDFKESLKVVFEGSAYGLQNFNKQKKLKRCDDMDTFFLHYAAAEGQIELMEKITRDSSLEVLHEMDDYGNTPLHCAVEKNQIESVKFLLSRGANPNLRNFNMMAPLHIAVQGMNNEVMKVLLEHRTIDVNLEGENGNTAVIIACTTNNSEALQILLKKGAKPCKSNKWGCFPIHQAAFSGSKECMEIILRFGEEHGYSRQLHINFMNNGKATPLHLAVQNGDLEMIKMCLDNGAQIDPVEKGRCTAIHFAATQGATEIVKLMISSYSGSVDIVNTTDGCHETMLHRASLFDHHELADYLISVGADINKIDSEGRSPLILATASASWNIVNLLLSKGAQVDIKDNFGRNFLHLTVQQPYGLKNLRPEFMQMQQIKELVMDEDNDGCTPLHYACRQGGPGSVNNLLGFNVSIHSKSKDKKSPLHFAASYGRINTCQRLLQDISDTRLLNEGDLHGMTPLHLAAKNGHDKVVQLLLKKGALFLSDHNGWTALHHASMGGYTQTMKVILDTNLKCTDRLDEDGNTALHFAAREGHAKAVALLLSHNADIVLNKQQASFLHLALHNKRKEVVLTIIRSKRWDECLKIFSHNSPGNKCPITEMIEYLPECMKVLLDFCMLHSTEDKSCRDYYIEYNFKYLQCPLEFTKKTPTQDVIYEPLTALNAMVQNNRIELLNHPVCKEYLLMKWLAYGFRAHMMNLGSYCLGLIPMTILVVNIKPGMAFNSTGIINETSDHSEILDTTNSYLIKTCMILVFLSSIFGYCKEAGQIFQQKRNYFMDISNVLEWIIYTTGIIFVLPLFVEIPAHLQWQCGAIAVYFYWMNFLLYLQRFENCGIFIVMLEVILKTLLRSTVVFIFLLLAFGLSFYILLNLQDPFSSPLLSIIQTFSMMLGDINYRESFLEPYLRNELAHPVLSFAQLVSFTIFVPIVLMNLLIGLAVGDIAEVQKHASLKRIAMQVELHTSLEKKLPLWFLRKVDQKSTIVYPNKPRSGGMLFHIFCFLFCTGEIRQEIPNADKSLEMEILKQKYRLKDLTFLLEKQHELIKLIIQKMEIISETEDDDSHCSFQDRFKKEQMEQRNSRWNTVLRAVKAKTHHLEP
Assay: Antagonist activity at TRPA1 (unknown origin) assessed as inhibition of mustard oil-activated […]
endpoint_label: IC50 (µM)
Numbers only, in µM.

Enter recorded IC50 with UniProt O75762 for CCC/C=C1\OC(=O)c2ccccc21 (mixture of isomers) [Z-butylidenephthalide] here.
23

----------
Target: Transient receptor potential cation channel subfamily A member 1 (Rattus norvegicus)
Sequence (Q6RI86 whole entry): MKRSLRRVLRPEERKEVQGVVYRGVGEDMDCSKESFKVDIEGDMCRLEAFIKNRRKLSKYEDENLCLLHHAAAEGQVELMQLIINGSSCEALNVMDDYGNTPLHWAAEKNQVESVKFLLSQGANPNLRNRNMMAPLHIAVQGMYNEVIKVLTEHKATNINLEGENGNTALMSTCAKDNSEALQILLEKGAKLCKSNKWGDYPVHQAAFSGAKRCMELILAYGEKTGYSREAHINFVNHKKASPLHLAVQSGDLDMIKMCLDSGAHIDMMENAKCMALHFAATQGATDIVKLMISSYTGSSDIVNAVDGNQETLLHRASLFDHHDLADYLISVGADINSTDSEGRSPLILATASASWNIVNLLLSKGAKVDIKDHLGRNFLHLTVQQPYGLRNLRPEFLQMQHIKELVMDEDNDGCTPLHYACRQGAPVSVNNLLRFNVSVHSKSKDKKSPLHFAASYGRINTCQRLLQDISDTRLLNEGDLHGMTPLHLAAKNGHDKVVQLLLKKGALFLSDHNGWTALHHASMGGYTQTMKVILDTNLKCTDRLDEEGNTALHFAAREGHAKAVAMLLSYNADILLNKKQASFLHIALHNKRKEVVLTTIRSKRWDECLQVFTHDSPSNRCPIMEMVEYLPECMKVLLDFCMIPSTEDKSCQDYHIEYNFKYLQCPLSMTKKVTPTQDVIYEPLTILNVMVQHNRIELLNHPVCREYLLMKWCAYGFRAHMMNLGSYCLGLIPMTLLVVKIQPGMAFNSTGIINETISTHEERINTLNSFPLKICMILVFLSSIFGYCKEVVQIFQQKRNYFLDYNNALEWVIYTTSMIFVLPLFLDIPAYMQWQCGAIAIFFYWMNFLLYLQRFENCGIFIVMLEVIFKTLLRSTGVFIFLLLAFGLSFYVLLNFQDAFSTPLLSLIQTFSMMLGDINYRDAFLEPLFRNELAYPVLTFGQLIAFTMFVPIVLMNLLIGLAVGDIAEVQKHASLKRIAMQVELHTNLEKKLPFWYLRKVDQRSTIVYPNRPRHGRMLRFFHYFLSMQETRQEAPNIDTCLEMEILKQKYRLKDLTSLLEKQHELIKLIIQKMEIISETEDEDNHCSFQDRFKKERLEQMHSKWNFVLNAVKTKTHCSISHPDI
Experiment: Agonist activity at rat recombinant TRPA1 overexpressed in HEK293 cells assessed as induction of intracellular calcium influx by Fluo-4-AM dye-based spectrofluorimetric analysis
endpoint_label: pEC50
Numbers only, as −log10 of the molar value.

Solved cases below.
O=C1O/C(=C\c2ccc(Cl)cc2)c2ccccc21    5.70
CC/C=C1\OC(=O)c2c(C)cc(C)cc21    4.80

Give pEC50 for each listed item.
1. Cc1cc(C)c2c(c1)/C(=C/c1ccccc1)OC2=O
2. COc1ccc(/C=C2\OC(=O)c3ccccc32)cc1

[5.96, 5.89]

----------
Molecular target: Transient receptor potential cation channel subfamily A member 1 (Rattus norvegicus)
Experiment: Antagonist activity at rat recombinant TRPA1 overexpressed in HEK293 cells assessed as inhibition of allyl isothiocyanate-induced intracellular calcium influx preincubated for 5 mins followed by allyl isothiocyanate challenge by Fluo-4-AM dye-based spectrofluorimetric analysis
Give measured pIC50 for each item. Keep answers brief.
Answers are plain numbers, as −log10 of the molar value.

O=C1O/C(=C\c2ccccc2)c2ccccc21    5.54
CCC/C=C1\OC(=O)c2ccccc21 [Z-butylidenephthalide]    4.35
Cc1ccc(/C=C2\OC(=O)c3ccccc32)cc1    5.62
C=C1OC(=O)c2c(C)cc(C)cc21    4.47

Would you kindly look at the next entry?
Quote pIC50 reported for "CC/C=C1\OC(=O)c2c(C)cc(C)cc21" please.
4.44

----------
Molecular target: Transient receptor potential cation channel subfamily A member 1 (Rattus norvegicus) (UniProt Q6RI86)
Sequence (Q6RI86 whole entry): as above
Assay: Agonist activity at rat recombinant TRPA1 overexpressed in HEK293 cells assessed as induction of intracellular calcium influx by Fluo-4-AM dye-based spectrofluorimetric analysis relative to allyl isothiocyanate
Type: cell-based
endpoint_label: Efficacy (%)
Give bare numbers, in %.

C/C=C1\OC(=O)c2ccc(OC)cc21    24.6
Cc1ccc(/C=C2\OC(=O)c3ccccc32)cc1    126
COc1ccc(/C=C2\OC(=O)c3ccccc32)cc1    65.1
Cc1cc(C)c2c(c1)/C(=C/c1ccccc1)OC2=O    117
O=C1O/C(=C\c2ccccc2)c2ccccc21    93.6

Next, consider the following compound.
Report measured Efficacy; entry is "C=C1OC(=O)c2c(C)cc(C)cc21"
85.1

----------
Target: Transient receptor potential cation channel subfamily M member 8 (Rattus norvegicus, UniProt Q8R455)
Sequence (Q8R455 whole entry): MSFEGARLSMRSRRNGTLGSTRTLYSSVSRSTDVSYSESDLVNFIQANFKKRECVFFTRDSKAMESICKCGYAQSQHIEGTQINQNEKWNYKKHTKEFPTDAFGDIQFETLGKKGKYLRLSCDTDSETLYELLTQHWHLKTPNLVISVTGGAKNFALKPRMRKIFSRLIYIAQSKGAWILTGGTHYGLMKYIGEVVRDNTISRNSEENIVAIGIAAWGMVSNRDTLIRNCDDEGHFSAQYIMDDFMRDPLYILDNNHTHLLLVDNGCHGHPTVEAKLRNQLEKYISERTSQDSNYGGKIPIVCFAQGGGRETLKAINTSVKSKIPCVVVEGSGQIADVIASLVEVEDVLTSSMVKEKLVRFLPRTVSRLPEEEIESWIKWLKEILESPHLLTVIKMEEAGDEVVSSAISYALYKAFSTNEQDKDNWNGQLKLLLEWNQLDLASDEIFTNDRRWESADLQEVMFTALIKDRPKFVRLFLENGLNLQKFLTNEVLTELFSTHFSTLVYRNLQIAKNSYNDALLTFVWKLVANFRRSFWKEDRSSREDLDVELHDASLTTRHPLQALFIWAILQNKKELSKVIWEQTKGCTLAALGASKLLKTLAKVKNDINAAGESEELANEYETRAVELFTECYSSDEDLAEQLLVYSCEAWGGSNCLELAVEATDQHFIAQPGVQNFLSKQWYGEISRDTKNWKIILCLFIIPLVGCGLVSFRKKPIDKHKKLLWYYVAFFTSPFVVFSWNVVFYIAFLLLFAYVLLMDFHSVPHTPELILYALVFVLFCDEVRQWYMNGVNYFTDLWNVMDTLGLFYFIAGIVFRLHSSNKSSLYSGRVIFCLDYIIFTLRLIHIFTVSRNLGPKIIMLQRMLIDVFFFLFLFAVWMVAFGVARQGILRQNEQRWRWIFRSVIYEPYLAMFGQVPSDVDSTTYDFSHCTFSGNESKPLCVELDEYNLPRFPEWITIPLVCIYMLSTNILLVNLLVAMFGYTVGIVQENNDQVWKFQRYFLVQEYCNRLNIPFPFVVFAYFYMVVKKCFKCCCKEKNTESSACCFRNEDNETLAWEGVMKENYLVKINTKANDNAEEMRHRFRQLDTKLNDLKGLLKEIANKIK
Assay: Agonist activity at rat recombinant TRPM8 overexpressed in HEK293 cells assessed as induction of intracellular calcium influx by Fluo-4-AM dye-based spectrofluorimetric analysis
endpoint_label: EC50 (nM)
Answers are plain numbers, in nM.

Please list EC50 recorded for the compound "COc1ccc(/C=C2\OC(=O)c3ccccc32)cc1"
1800

----------
Kindly supply the reported pIC50 values for the records listed here.
Target: Transient receptor potential cation channel subfamily M member 8 (Rattus norvegicus)
Assay: Antagonist activity at rat recombinant TRPM8 overexpressed in HEK293 cells assessed as inhibition of menthol-induced intracellular calcium influx preincubated for 5 mins followed by menthol challenge by Fluo-4-AM dye-based spectrofluorimetric analysis
Assay type: cell-based
Answers are plain numbers, as −log10 of the molar value.

Recorded results for 3 molecules are shown here.
Cc1cc(C)c2c(c1)/C(=C/c1ccccc1)OC2=O    5.72
CCC/C=C1\OC(=O)c2ccccc21 [Z-butylidenephthalide]    3.81
C=C1OC(=O)c2c(C)cc(C)cc21    3.89

# per-item lookup of pIC50; items listed below
1. COc1ccc(/C=C2\OC(=O)c3ccccc32)cc1
2. Cc1ccc(/C=C2\OC(=O)c3ccccc32)cc1

4.95
4.60
